Organism: Rattus norvegicus
Assay: In vitro histamine releasing activity in rat peritoneal cells
Assay type: functional
Settings: read-out: ED50 (the source's name)
*1 amine or outer side, *2 acyl side, *3 side chain or, on linkers, in order; H or OH if unused. Where a SMILES comes first, the peptide text is derived from it. [ ]: non-standard residue; d: D form. X1 = O=C([C@@H](CCCCNC1CCCC1)N[*:1])[*:2]; X2 = O=C([C@H](CCCCNC1CCCC1)N[*:1])[*:2]; d2Nal = N[C@H](Cc1ccc2ccccc2c1)C(=O)O

[
  {
    "compound": "CC(=O)N[C@H](Cc1ccc2ccccc2c1)C(=O)N[C@H](Cc1ccccc1)C(=O)N[C@H](Cc1ccccc1)C(=O)N[C@@H](CO)C(=O)N[C@@H](Cc1ccc(O)cc1)C(=O)N[C@H](CCCN=C(N)N)C(=O)N[C@@H](Cc1ccccc1)C(=O)N[C@@H](CCCCNCc1ccc(C)cc1)C(=O)N1CCC[C@H]1C(=O)N[C@H](C)C(=O)O",
    "unit abbreviation": "µg/mL",
    "EC50": 33
  },
  {
    "compound": "CC(=O)N[C@H](Cc1ccc2ccccc2c1)C(=O)N[C@H](Cc1ccccc1)C(=O)N[C@H](Cc1ccccc1)C(=O)N[C@@H](CO)C(=O)N[C@@H](Cc1ccc(O)cc1)C(=O)N[C@H](CCCCNC1CCCC1)C(=O)N[C@@H](Cc1ccccc1)C(=O)N[C@@H](CCCCNC1CCCC1)C(=O)N1CCC[C@H]1C(=O)N[C@H](C)C(N)=O (Ac-[d2Nal][dF][dF]SY[X1]F[X2]P[dA]-NH2)",
    "unit abbreviation": "µg/mL",
    "EC50": 6.1
  }
]

* * *

Species on record: Rattus norvegicus
Assay: In vitro histamine releasing activity in rat peritoneal cells
Format: functional
Conditions: read-out: ED50 (the source's name)

[
  {
    "smiles code": "CC(=O)N[C@H](Cc1ccc2ccccc2c1)C(=O)N[C@H](Cc1ccccc1)C(=O)N[C@H](Cc1ccccc1)C(=O)N[C@@H](CO)C(=O)N[C@@H](Cc1ccc(O)cc1)C(=O)N[C@H](CCCN=C(N)N)C(=O)N[C@@H](Cc1ccccc1)C(=O)N[C@@H](CCCCNCc1c(C)cc(C)cc1C)C(=O)N1CCC[C@H]1C(=O)N[C@H](C)C(=O)O",
    "EC50 / µg/mL": 4.73
  },
  {
    "smiles code": "CC(=O)N[C@H](Cc1ccc2ccccc2c1)C(=O)N[C@H](Cc1ccccc1)C(=O)N[C@H](Cc1ccccc1)C(=O)N[C@@H](CO)C(=O)N[C@@H](Cc1ccc(O)cc1)C(=O)N[C@H](CCCN=C(N)N)C(=O)N[C@@H](Cc1ccccc1)C(=O)N[C@@H](CCCCNCC(C)(C)C)C(=O)N1CCC[C@H]1C(=O)N[C@H](C)C(=O)O",
    "EC50 / µg/mL": 4.68
  },
  {
    "smiles code": "CCCC(CCC)NCCCC[C@H](NC(=O)[C@H](Cc1ccccc1)NC(=O)[C@@H](CCCCNC(CCC)CCC)NC(=O)[C@H](Cc1ccc(O)cc1)NC(=O)[C@H](CO)NC(=O)[C@@H](Cc1ccccc1)NC(=O)[C@@H](Cc1ccccc1)NC(=O)[C@@H](Cc1ccc2ccccc2c1)NC(C)=O)C(=O)N1CCC[C@H]1C(=O)N[C@H](C)C(N)=O",
    "EC50 / µg/mL": 21.9
  },
  {
    "smiles code": "CC(=O)N[C@H](Cc1ccc2ccccc2c1)C(=O)N[C@H](Cc1ccccc1)C(=O)N[C@H](Cc1ccccc1)C(=O)N[C@@H](CO)C(=O)N[C@@H](Cc1ccc(O)cc1)C(=O)N[C@H](CCCCNC(C)C)C(=O)N[C@@H](Cc1ccccc1)C(=O)N[C@@H](CCCCNC(C)C)C(=O)N1CCC[C@H]1C(=O)N[C@H](C)C(N)=O",
    "EC50 / µg/mL": 6.48
  }
]

* * *

Species: Rattus norvegicus
Experiment: In vitro histamine releasing activity in rat peritoneal cells
Format: functional
Details: read-out: ED50 (the source's name)
EC50 values by entry

[
  {
    "smiles code": "CCCCC(CCCC)NCCCC[C@H](NC(=O)[C@H](Cc1ccccc1)NC(=O)[C@@H](CCCCNC(CCCC)CCCC)NC(=O)[C@H](Cc1ccc(O)cc1)NC(=O)[C@H](CO)NC(=O)[C@@H](Cc1ccccc1)NC(=O)[C@@H](Cc1ccccc1)NC(=O)[C@@H](Cc1ccc2ccccc2c1)NC(C)=O)C(=O)N1CCC[C@H]1C(=O)N[C@H](C)C(N)=O",
    "sign": ">",
    "EC50, µg/mL": 300
  },
  {
    "smiles code": "CCCC(CCC)NCCCC[C@H](NC(=O)[C@H](Cc1ccccc1)NC(=O)[C@@H](CCCN=C(N)N)NC(=O)[C@H](Cc1ccc(O)cc1)NC(=O)[C@H](CO)NC(=O)[C@@H](Cc1ccccc1)NC(=O)[C@@H](Cc1ccccc1)NC(=O)[C@@H](Cc1ccc2ccccc2c1)NC(C)=O)C(=O)N1CCC[C@H]1C(=O)N[C@H](C)C(=O)O",
    "sign": "=",
    "EC50, µg/mL": 4.6
  },
  {
    "smiles code": "CC(=O)N[C@H](Cc1ccc2ccccc2c1)C(=O)N[C@H](Cc1ccccc1)C(=O)N[C@H](Cc1ccccc1)C(=O)N[C@@H](CO)C(=O)N[C@@H](Cc1ccc(O)cc1)C(=O)N[C@H](CCCCNC1CCCCC1)C(=O)N[C@@H](Cc1ccccc1)C(=O)N[C@@H](CCCCNC1CCCCC1)C(=O)N1CCC[C@H]1C(=O)N[C@H](C)C(N)=O",
    "sign": "=",
    "EC50, µg/mL": 5.86
  }
]
